biological target: panel of more than 300 wild-type and mutant kinases (313 kinase panel) (Homo sapiens, UniProt P22455, N535K); assay: Kinase profiling in a biochemical assay panel (mobility shift assays and ELISA), %-inhibition at 1 μM; selectivity entropy; details: kinase FGFR4(N535K); compound at 1 μM
Sequence (P22455 22-802 N535K): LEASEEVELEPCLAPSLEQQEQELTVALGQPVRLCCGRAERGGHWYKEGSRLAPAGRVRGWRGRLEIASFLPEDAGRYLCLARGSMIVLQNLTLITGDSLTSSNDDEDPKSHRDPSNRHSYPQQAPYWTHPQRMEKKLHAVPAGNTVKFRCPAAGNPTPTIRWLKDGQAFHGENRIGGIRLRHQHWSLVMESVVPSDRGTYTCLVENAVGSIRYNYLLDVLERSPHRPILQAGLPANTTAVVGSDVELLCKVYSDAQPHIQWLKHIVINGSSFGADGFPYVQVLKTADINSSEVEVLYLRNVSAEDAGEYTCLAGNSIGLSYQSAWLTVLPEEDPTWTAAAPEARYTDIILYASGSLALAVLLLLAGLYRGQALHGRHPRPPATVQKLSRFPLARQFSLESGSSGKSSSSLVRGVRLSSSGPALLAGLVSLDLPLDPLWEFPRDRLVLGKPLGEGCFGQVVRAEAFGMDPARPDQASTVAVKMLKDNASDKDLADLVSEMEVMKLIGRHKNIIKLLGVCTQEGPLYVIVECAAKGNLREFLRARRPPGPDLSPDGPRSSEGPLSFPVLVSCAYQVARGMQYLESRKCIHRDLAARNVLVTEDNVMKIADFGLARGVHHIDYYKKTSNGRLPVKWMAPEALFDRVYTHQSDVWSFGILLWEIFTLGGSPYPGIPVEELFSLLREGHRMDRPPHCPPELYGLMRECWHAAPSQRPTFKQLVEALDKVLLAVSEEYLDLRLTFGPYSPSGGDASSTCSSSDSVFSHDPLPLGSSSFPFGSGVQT
assay.readout: %-inhibition of FGFR4(N535K)
Please state the value followed by its unit.

- compound: "C[C@@H](Oc1cc(-c2cnn(C3CCNCC3)c2)cnc1N)c1c(Cl)ccc(F)c1Cl [crizotinib]"
  endpoint.value: "6.5%"
- compound: "CNC(=O)c1cc(Oc2ccc(NC(=O)Nc3ccc(Cl)c(C(F)(F)F)c3)c(F)c2)ccn1 [regorafenib]"
  endpoint.value: "62%"

// switching to the query compound
# %-inhibition of FGFR4(N535K) lookup, item CO[C@H]1C[C@@H]2CC[C@@H](C)[C@@](O)(O2)C(=O)C(=O)N2CCCC[C@H]2C(=O)O[C@H]([C@H](C)C[C@@H]2CC[C@@H](OCCO)[C@H](OC)C2)CC(=O)[C@H](C)/C=C(\C)[C@@H](O)[C@@H](OC)C(=O)[C@H](C)C[C@H](C)/C=C/C=C/C=C/1C [everolimus]
9%

----------
biological target: panel of more than 300 wild-type and mutant kinases (313 kinase panel) (Homo sapiens); assay: Kinase profiling in a biochemical assay panel (mobility shift assays and ELISA), %-inhibition at 1 μM; selectivity entropy; conditions: kinase PIM3; 1 μM
assay.readout: %-inhibition of PIM3

Below are worked cases with known answers.
- compound: "C[C@@H](Oc1cc(-c2cnn(C3CCNCC3)c2)cnc1N)c1c(Cl)ccc(F)c1Cl [crizotinib]"
  endpoint.value: "-4%"
- compound: "N#CC[C@H](C1CCCC1)n1cc(-c2ncnc3[nH]ccc23)cn1 [ruxolitinib]"
  endpoint.value: "-9%"
- compound: "CNC(=O)c1cc(Oc2ccc(NC(=O)Nc3ccc(Cl)c(C(F)(F)F)c3)c(F)c2)ccn1 [regorafenib]"
  endpoint.value: "-6.53%"
- compound: "CO[C@H]1C[C@@H]2CC[C@@H](C)[C@@](O)(O2)C(=O)C(=O)N2CCCC[C@H]2C(=O)O[C@H]([C@H](C)C[C@@H]2CC[C@@H](OCCO)[C@H](OC)C2)CC(=O)[C@H](C)/C=C(\\C)[C@@H](O)[C@@H](OC)C(=O)[C@H](C)C[C@H](C)/C=C/C=C/C=C/1C [everolimus]"
  endpoint.value: "-4%"

// switching to the query compound
Notebook entry, panel of more than 300 wild-type and mutant kinases (313 kinase panel) (Homo sapiens) assay: %-inhibition of PIM3 of CO[C@H]1C[C@@H]2CC[C@@H](C)[C@@](O)(O2)C(=O)C(=O)N2CCCC[C@H]2C(=O)O[C@H]([C@H](C)C[C@@H]2CC[C@@H](OC(=O)C(C)(CO)CO)[C@H](OC)C2)CC(=O)[C@H](C)/C=C(\C)[C@@H](O)[C@@H](OC)C(=O)[C@H](C)C[C@H](C)/C=C/C=C/C=C/1C [temsirolimus] = ?
-1.31%

----------
Reported %-inhibition, CDK6/CycD3 values are given for each entry in this list.
target: panel of more than 300 wild-type and mutant kinases (313 kinase panel) (Homo sapiens, UniProt Q00534); assay: Kinase profiling in a biochemical assay panel (mobility shift assays and ELISA), %-inhibition at 1 μM; selectivity entropy; conditions: kinase CDK6/CycD3; 1 μM compound
Kindly answer with a numeric value in %, unit omitted.

- molecule: "N#CC[C@H](C1CCCC1)n1cc(-c2ncnc3[nH]ccc23)cn1 [ruxolitinib]"
  measurement.units: "%"
  %-inhibition, CDK6/CycD3: -6
- molecule: "Cc1ccc(Nc2nccc(N(C)c3ccc4c(C)n(C)nc4c3)n2)cc1S(N)(=O)=O [pazopanib]"
  measurement.units: "%"
  %-inhibition, CDK6/CycD3: 9
- molecule: "O=S(=O)(c1cccc2cnccc12)N1CCCNCC1 [fasudil]"
  measurement.units: "%"
  %-inhibition, CDK6/CycD3: -5.68
- molecule: "COc1cc2nccc(Oc3ccc(NC(=O)C4(C(=O)Nc5ccc(F)cc5)CC4)cc3)c2cc1OC [cabozantinib]"
  measurement.units: "%"
  %-inhibition, CDK6/CycD3: 0.312
- molecule: "CNC(=O)c1cc(Oc2ccc(NC(=O)Nc3ccc(Cl)c(C(F)(F)F)c3)c(F)c2)ccn1 [regorafenib]"
  measurement.units: "%"
  %-inhibition, CDK6/CycD3: -1.31

# %-inhibition, CDK6/CycD3 lookup, item Cc1ccc(C(=O)Nc2ccc(CN3CCN(C)CC3)c(C(F)(F)F)c2)cc1C#Cc1cnc2cccnn12 [ponatinib]
25

# %-inhibition, CDK6/CycD3 lookup, item CO[C@H]1C[C@@H]2CC[C@@H](C)[C@@](O)(O2)C(=O)C(=O)N2CCCC[C@H]2C(=O)O[C@H]([C@H](C)C[C@@H]2CC[C@@H](OCCO)[C@H](OC)C2)CC(=O)[C@H](C)/C=C(\C)[C@@H](O)[C@@H](OC)C(=O)[C@H](C)C[C@H](C)/C=C/C=C/C=C/1C [everolimus]
-3

# %-inhibition, CDK6/CycD3 lookup, item CS(=O)(=O)CCNCc1ccc(-c2ccc3ncnc(Nc4ccc(OCc5cccc(F)c5)c(Cl)c4)c3c2)o1 [lapatinib]
5

# %-inhibition, CDK6/CycD3 lookup, item Cc1nc(Nc2ncc(C(=O)Nc3c(C)cccc3Cl)s2)cc(N2CCN(CCO)CC2)n1 [dasatinib]
9

# %-inhibition, CDK6/CycD3 lookup, item CO[C@H]1C[C@@H]2CC[C@@H](C)[C@@](O)(O2)C(=O)C(=O)N2CCCC[C@H]2C(=O)O[C@H]([C@H](C)C[C@@H]2CC[C@@H](OC(=O)C(C)(CO)CO)[C@H](OC)C2)CC(=O)[C@H](C)/C=C(\C)[C@@H](O)[C@@H](OC)C(=O)[C@H](C)C[C@H](C)/C=C/C=C/C=C/1C [temsirolimus]
-3.18

# %-inhibition, CDK6/CycD3 lookup, item Cc1cn(-c2cc(NC(=O)c3ccc(C)c(Nc4nccc(-c5cccnc5)n4)c3)cc(C(F)(F)F)c2)cn1 [nilotinib]
-23

# %-inhibition, CDK6/CycD3 lookup, item COc1cc2c(Nc3ccc(Br)cc3F)ncnc2cc1OCC1CCN(C)CC1 [vandetanib]
-1.19

----------
Reported %-inhibition, AMPKα2/β1/γ1 values are given for each entry in this list.
biological target: panel of more than 300 wild-type and mutant kinases (313 kinase panel) (Homo sapiens, UniProt P54646); test: Kinase profiling in a biochemical assay panel (mobility shift assays and ELISA), %-inhibition at 1 μM; selectivity entropy; details: kinase AMPKα2/β1/γ1; 1 μM compound
Kindly answer with a numeric value in %, unit omitted.

- smiles.code: "O=S(=O)(c1cccc2cnccc12)N1CCCNCC1"
  measurement.units: "%"
  endpoint.value: 5
- smiles.code: "Cc1ccc(Nc2nccc(N(C)c3ccc4c(C)n(C)nc4c3)n2)cc1S(N)(=O)=O"
  measurement.units: "%"
  endpoint.value: 0.826

# %-inhibition, AMPKα2/β1/γ1 lookup, item CNC(=O)c1cc(Oc2ccc(NC(=O)Nc3ccc(Cl)c(C(F)(F)F)c3)c(F)c2)ccn1
16

# %-inhibition, AMPKα2/β1/γ1 lookup, item CC(=O)Nc1cccc(-n2c(=O)n(C3CC3)c(=O)c3c(Nc4ccc(I)cc4F)n(C)c(=O)c(C)c32)c1
1.21

----------
biological target: panel of more than 300 wild-type and mutant kinases (313 kinase panel) (Homo sapiens, UniProt O14578); test: Kinase profiling in a biochemical assay panel (mobility shift assays and ELISA), %-inhibition at 1 μM; selectivity entropy; details: kinase CRIK; compound at 1 μM
Sequence (O14578 whole entry, change not shown): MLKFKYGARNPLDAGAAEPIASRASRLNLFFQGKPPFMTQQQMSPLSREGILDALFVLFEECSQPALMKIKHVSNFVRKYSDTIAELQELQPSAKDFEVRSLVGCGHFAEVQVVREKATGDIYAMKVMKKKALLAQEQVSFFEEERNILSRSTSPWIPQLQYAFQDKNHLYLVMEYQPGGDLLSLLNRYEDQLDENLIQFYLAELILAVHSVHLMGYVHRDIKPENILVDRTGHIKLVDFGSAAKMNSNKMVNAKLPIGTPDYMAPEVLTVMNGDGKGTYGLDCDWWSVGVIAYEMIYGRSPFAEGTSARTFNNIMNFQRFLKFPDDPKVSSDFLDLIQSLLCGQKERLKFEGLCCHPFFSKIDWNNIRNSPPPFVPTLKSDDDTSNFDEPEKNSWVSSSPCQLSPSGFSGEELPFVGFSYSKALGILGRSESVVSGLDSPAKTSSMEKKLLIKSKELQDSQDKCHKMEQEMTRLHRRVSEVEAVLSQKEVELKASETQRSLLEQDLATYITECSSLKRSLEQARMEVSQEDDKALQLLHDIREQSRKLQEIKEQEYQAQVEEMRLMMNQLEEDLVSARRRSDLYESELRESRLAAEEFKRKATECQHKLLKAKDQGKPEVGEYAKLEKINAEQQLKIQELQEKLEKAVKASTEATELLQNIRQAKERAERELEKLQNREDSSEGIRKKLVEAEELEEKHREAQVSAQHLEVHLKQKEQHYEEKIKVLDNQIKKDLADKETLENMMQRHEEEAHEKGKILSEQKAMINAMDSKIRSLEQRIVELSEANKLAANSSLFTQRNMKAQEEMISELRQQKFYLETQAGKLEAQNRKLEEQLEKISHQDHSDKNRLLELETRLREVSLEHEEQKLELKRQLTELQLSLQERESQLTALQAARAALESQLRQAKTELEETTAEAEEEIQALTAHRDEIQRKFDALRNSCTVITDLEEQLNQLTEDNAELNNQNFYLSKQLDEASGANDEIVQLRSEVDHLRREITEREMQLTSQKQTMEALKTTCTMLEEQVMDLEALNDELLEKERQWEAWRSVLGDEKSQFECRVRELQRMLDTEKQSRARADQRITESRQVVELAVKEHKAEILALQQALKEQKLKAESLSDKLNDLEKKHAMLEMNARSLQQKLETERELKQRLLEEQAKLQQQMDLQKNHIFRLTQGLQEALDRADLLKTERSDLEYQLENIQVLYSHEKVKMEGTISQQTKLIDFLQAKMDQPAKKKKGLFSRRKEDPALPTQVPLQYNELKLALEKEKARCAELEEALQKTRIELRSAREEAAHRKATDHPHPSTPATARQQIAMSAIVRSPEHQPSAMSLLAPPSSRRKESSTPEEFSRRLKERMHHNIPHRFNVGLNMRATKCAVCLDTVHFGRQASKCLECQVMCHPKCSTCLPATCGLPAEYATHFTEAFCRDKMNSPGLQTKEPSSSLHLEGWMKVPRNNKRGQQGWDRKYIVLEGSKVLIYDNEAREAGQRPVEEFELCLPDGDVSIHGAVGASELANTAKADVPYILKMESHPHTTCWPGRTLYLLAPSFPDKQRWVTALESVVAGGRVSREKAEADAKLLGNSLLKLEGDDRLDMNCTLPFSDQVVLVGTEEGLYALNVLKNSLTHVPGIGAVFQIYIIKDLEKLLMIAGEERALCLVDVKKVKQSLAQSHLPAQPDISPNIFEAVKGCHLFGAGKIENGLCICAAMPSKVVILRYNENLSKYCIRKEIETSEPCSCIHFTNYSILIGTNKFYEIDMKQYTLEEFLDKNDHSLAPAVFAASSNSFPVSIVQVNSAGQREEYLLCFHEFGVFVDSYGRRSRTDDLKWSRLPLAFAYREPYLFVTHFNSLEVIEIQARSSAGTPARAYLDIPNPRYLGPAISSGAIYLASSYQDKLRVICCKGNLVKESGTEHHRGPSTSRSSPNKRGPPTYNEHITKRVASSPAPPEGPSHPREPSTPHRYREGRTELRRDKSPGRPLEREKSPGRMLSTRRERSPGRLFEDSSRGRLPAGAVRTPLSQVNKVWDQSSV
assay.readout: %-inhibition of CRIK
Please state the value followed by its unit.

Below are worked cases with known answers.
- molecule: "Cc1ccc(Nc2nccc(N(C)c3ccc4c(C)n(C)nc4c3)n2)cc1S(N)(=O)=O [pazopanib]"
  assay.readout: "%-inhibition of CRIK"
  endpoint.value: "-2%"
- molecule: "COc1cc(Nc2c(C#N)cnc3cc(OCCCN4CCN(C)CC4)c(OC)cc23)c(Cl)cc1Cl [bosutinib]"
  assay.readout: "%-inhibition of CRIK"
  endpoint.value: "73%"
- molecule: "COc1cc2nccc(Oc3ccc(NC(=O)C4(C(=O)Nc5ccc(F)cc5)CC4)cc3)c2cc1OC [cabozantinib]"
  assay.readout: "%-inhibition of CRIK"
  endpoint.value: "-10%"
- molecule: "CO[C@H]1C[C@@H]2CC[C@@H](C)[C@@](O)(O2)C(=O)C(=O)N2CCCC[C@H]2C(=O)O[C@H]([C@H](C)C[C@@H]2CC[C@@H](OCCO)[C@H](OC)C2)CC(=O)[C@H](C)/C=C(\\C)[C@@H](O)[C@@H](OC)C(=O)[C@H](C)C[C@H](C)/C=C/C=C/C=C/1C [everolimus]"
  assay.readout: "%-inhibition of CRIK"
  endpoint.value: "-14%"
- molecule: "COc1cc2c(Nc3ccc(Br)cc3F)ncnc2cc1OCC1CCN(C)CC1 [vandetanib]"
  assay.readout: "%-inhibition of CRIK"
  endpoint.value: "-2.19%"
- molecule: "Cc1cn(-c2cc(NC(=O)c3ccc(C)c(Nc4nccc(-c5cccnc5)n4)c3)cc(C(F)(F)F)c2)cn1 [nilotinib]"
  assay.readout: "%-inhibition of CRIK"
  endpoint.value: "-16%"

# %-inhibition of CRIK lookup, item O=S(=O)(c1cccc2cnccc12)N1CCCNCC1 [fasudil]
7%
